The origin of these recorded values is the supplement of paper PMC10849652.

Target Desc: ZRANB2 (UniProt O95218)
Sequence (O95218 whole entry, looked up): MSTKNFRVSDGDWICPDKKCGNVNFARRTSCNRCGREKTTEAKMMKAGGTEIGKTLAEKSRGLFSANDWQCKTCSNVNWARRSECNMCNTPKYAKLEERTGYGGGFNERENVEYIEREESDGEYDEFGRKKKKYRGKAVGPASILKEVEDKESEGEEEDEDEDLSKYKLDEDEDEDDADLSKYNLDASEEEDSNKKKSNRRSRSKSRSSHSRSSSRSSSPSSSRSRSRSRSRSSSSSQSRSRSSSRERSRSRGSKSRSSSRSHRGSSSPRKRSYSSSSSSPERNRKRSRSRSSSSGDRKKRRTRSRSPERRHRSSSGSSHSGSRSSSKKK
Experiment: log2 fold change, soluble protein after heating vs DMSO (PISA); higher = thermal stabilisation; K562 cells, 10 uM, 30 min; active = over 0.2 and 3.5 SD of the protein, either way, in both replicates (recomputed)
Targets with a hit are over-represented here; the source holds about 7,900 in all. About 0.6% of all pairs of compound and target were hits.
Overview of reported log2 fold change across a group of compounds:
Quick one: just the number, no unit, thanks!

Study these solved cases before continuing.
[
  {
    "Compound": "Cn1cc(-c2ccc3nnc(C(F)(F)c4ccc5ncccc5c4)n3n2)cn1",
    "Measured Result": 0.036
  },
  {
    "Compound": "CN1CCN(CCOc2cc(OC3CCOCC3)c3c(Nc4c(Cl)ccc5c4OCO5)ncnc3c2)CC1",
    "Measured Result": 0.044
  },
  {
    "Compound": "Nc1ccccc1NC(=O)c1ccc(CNC(=O)OCc2cccnc2)cc1",
    "Measured Result": -0.024
  }
]

What log2 fold change appears in the records for this compound with ZRANB2 (UniProt O95218)? `CS(=O)(=O)c1ccc(-c2cnc(N)c(C(=O)Nc3ccccc3)n2)cc1`
-0.013

Proceed to CN(CCOc1ccc(C[C@@H]2SC(=O)NC2=O)cc1)c1ccccn1 (racemic)
-0.055

Same read-out for `COc1ccc(Cn2ccc3ccc(C(=O)NO)cc32)cc1` ?
-0.022

----------
Target Desc: ZYG11B (UniProt Q9C0D3)
Sequence (Q9C0D3 whole entry, looked up): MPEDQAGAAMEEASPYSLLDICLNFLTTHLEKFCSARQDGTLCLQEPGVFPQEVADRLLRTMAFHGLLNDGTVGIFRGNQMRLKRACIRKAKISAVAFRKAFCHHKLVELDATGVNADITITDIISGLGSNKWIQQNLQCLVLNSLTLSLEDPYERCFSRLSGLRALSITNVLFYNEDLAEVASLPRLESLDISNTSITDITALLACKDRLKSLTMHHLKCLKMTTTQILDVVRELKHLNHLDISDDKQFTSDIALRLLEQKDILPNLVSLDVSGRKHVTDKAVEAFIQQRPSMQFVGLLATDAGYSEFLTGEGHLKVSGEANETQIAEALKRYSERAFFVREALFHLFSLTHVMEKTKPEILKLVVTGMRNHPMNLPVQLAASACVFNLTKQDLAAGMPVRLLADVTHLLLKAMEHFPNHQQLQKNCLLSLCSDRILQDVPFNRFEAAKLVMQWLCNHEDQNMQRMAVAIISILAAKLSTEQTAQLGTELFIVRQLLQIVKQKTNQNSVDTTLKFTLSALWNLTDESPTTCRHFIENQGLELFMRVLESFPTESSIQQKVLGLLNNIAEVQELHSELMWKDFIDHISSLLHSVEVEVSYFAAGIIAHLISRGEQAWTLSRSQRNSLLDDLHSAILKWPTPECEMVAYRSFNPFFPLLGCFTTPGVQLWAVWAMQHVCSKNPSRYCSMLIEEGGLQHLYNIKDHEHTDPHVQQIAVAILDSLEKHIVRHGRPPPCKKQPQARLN
Experiment: log2 fold change, soluble protein after heating vs DMSO (PISA); higher = thermal stabilisation; K562 cells, 10 uM, 30 min; active = over 0.2 and 3.5 SD of the protein, either way, in both replicates (recomputed)
About 7,900 targets were measured; listed, in parts, are those with a hit and a random draw of the rest. About 0.6% of all pairs of compound and target were hits.
Assign yes to entries whose log2 fold change meets or exceeds 0.01; assign no to the rest.

[
  {
    "Smiles Str": "CN1CCN(c2nc(C3=C(c4c[nH]c5ccccc45)C(=O)NC3=O)c3ccccc3n2)CC1",
    "Target Desc": "ZYG11B (UniProt Q9C0D3)",
    "Class Assignment": "yes"
  }
]

Quick check: does `COC(=O)[C@H](CCSC)NC(=O)c1ccc(NC[C@@H](N)CS)cc1-c1ccccc1` have log2 fold change greater than or equal to 0.01?
yes

Input `c1cc(OCCN2CCCCC2)cc(-c2n[nH]c3ccc(-c4nnc[nH]4)cc23)c1`
no

Same again, this time with `CCCc1cc(C)[nH]c(=O)c1CNC(=O)c1cc(-c2ccnc(N3CCN(C)CC3)c2)cc2c1cnn2C(C)C`
yes

`CC(=O)c1cnc2ccc(-c3cc(Cl)c(O)c(Cl)c3)nc2c1N[C@H]1CC[C@H](CN(C)C)CC1` , same question.
no

Follow-up item: `CO[C@H]1C[C@@H]2CC[C@@H](C)[C@@](O)(O2)C(=O)C(=O)N2CCCC[C@H]2C(=O)O[C@H]([C@H](C)C[C@@H]2CC[C@H](n3cnnn3)[C@H](OC)C2)CC(=O)[C@H](C)/C=C(\C)[C@@H](O)[C@@H](OC)C(=O)[C@H](C)C[C@H](C)/C=C/C=C/C=C/1C`
yes

Entry `CC[C@H](C)n1cc(C)c2c(C(=O)NCc3c(C)cc(C)[nH]c3=O)cc(-c3ccc(N4CCNCC4)nc3)cc21` please
yes

Next compound: `CC(C)C[C@@H](C=O)NC(=O)[C@H](CC(C)C)NC(=O)[C@H](CC(C)C)NC(=O)OCc1ccccc1`
yes

How about this compound: `COc1cccc2cc(-c3nc([C@H]4CC[C@H](C(=O)O)CC4)n4ncnc(N)c34)[nH]c12`
yes

----------
Target Desc: ZMYM1 (UniProt Q5SVZ6)
Sequence (Q5SVZ6 whole entry, looked up): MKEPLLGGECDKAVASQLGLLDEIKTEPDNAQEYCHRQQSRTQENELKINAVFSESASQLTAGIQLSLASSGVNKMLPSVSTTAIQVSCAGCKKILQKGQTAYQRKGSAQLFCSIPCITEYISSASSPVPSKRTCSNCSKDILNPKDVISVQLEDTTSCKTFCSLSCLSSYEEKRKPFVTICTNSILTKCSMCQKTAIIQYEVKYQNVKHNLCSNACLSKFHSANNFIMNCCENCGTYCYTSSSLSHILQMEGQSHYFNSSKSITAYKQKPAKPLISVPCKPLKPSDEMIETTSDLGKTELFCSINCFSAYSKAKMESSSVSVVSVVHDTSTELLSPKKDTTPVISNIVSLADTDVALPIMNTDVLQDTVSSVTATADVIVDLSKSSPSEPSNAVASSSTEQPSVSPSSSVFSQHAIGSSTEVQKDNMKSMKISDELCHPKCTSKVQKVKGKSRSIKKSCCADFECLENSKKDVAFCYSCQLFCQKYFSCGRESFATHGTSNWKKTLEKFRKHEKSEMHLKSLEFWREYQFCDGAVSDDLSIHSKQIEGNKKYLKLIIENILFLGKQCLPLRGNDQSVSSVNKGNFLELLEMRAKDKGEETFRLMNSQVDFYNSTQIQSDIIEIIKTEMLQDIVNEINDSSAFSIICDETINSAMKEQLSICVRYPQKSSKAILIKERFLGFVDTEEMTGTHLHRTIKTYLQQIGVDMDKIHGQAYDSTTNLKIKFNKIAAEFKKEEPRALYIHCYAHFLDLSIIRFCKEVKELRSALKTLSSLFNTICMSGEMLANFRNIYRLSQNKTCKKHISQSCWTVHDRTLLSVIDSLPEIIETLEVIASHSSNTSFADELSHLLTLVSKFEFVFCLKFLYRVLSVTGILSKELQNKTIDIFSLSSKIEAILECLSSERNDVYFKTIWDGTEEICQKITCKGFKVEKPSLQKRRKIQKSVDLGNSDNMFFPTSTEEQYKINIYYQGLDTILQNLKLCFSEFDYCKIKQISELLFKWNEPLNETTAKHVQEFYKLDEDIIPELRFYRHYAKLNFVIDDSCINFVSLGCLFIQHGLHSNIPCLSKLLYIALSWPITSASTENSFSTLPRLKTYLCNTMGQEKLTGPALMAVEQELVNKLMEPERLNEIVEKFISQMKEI
Experiment: log2 fold change, soluble protein after heating vs DMSO (PISA); higher = thermal stabilisation; K562 cells, 10 uM, 30 min; active = over 0.2 and 3.5 SD of the protein, either way, in both replicates (recomputed)
Targets with a hit are over-represented here; the source holds about 7,900 in all. About 0.6% of all pairs of compound and target were hits.
Outcome Measure: log2 fold change
I'd appreciate a reply containing only the number, no unit.

[
  {
    "Compound": "CNc1nc(-c2ccc3c(N)n[nH]c3c2)cc(N2C[C@@H](C(=O)NC3CCCCC3)CC[C@H]2C)n1",
    "log2 fold change": -0.021
  },
  {
    "Compound": "Cc1ccc(NC(=O)c2cccc(N(C)C)c2)cc1NC(=O)c1ccc(O)cc1",
    "log2 fold change": 0.051
  },
  {
    "Compound": "Cn1c2cc(S(C)=O)sc2c2cnn(Cc3cccc(N)c3)c(=O)c21 (stereo not given)",
    "log2 fold change": -0.014
  },
  {
    "Compound": "CCn1c(C(=O)N(C2CC2)C2CC2)cc2c3c(ncn3C)c(Nc3cc(C)n(C)n3)nc21",
    "log2 fold change": -0.079
  }
]

We now examine a further compound.
Query: log2 fold change; subject: `Cc1ccc(Sc2cncc3sc(C(N)=O)cc23)cc1`
0.061

----------
Target Desc: ZNF622 (UniProt Q969S3)
Sequence (Q969S3 whole entry, looked up): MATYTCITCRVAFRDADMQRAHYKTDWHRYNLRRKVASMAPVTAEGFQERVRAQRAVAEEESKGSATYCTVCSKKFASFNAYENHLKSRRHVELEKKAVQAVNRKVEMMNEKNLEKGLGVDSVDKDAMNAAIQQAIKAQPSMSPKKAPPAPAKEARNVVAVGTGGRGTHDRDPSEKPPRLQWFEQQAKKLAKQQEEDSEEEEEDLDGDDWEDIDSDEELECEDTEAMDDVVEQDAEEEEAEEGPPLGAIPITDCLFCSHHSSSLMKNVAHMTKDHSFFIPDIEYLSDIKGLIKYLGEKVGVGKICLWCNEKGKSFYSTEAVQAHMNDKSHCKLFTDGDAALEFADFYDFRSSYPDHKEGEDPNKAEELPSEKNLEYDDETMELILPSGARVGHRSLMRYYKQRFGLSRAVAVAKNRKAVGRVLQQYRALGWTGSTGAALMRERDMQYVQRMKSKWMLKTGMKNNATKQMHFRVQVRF
Experiment: log2 fold change, soluble protein after heating vs DMSO (PISA); higher = thermal stabilisation; K562 cells, 10 uM, 30 min; active = over 0.2 and 3.5 SD of the protein, either way, in both replicates (recomputed)
The full data set covers some 7,900 targets. This sample favours those with a hit. About 0.6% of all pairs of compound and target were hits.
Outcome Measure: log2 fold change
Enter the number alone.

Below, each entry is followed by its recorded log2 fold change result.
[
  {
    "Compound": "CNCc1ccc(-c2[nH]c3cc(F)cc4c3c2CCNC4=O)cc1 [rucaparib]",
    "log2 fold change": -0.194
  },
  {
    "Compound": "O=C(Nc1nc2ccccc2n1CCN1CCOCC1)c1cccc([N+](=O)[O-])c1 [IRAK-1-4 Inhibitor I]",
    "log2 fold change": 0.004
  },
  {
    "Compound": "O=C(CCCCCCC(=O)Nc1ccccc1)NO [vorinostat]",
    "log2 fold change": -0.049
  },
  {
    "Compound": "C#Cc1cccc(Nc2ncnc3cc(OCCOC)c(OCCOC)cc23)c1 [erlotinib]",
    "log2 fold change": 0.056
  },
  {
    "Compound": "NC1(c2ccc(-c3nc4ccn5c(=O)[nH]nc5c4cc3-c3ccccc3)cc2)CCC1",
    "log2 fold change": -0.019
  },
  {
    "Compound": "CS(=O)(=O)CCNCc1ccc(-c2ccc3ncnc(Nc4ccc(OCc5cccc(F)c5)c(Cl)c4)c3c2)o1 [lapatinib]",
    "log2 fold change": 0
  }
]

Find the recorded log2 fold change belonging to `Cc1nc(Nc2n[nH]c3c2CN(C(=O)N[C@H](CN(C)C)c2ccccc2)C3(C)C)c2sccc2n1` and report it.
0.091

Next compound up: CNC(=O)c1ccc(Nc2ncc(C(F)(F)F)c(NCc3nccnc3N(C)S(C)(=O)=O)n2)cc1 [defactinib]
0.057

Also check Cc1cc(Nc2cc(CN3CCOCC3)c3nc(C)c(Cc4ccc(Cl)cc4F)n3n2)n[nH]1 [gandotinib]
0.075

----------
Target Desc: ZYG11B (UniProt Q9C0D3)
Experiment: log2 fold change, soluble protein after heating vs DMSO (PISA); higher = thermal stabilisation; K562 cells, 10 uM, 30 min; active = over 0.2 and 3.5 SD of the protein, either way, in both replicates (recomputed)
The full data set covers some 7,900 targets. This sample favours those with a hit. About 0.6% of all pairs of compound and target were hits.
Reported log2 fold change maps to class as: low range: < -0.03; mid range: ≥ -0.03 and < 0.01; high range: ≥ 0.01

[
  {
    "Smiles Str": "NC(=O)c1cnc(N[C@@H]2CCCC[C@@H]2N)nc1Nc1cccc(-n2nccn2)c1",
    "Class Assignment": "high range"
  },
  {
    "Smiles Str": "O=C1NC(=O)/C(=C\\c2ccc3nccnc3c2)S1",
    "Class Assignment": "low range"
  },
  {
    "Smiles Str": "NC(=O)Nc1cc(-c2cccc(F)c2)sc1C(=O)N[C@H]1CCCNC1",
    "Class Assignment": "low range"
  },
  {
    "Smiles Str": "CCCS(=O)(=O)Nc1ccc(F)c(C(=O)c2c[nH]c3ncc(Cl)cc23)c1F",
    "Class Assignment": "low range"
  },
  {
    "Smiles Str": "C[C@H](Nc1ncnc2nc[nH]c12)c1cc2cccc(Cl)c2c(=O)n1-c1ccccc1",
    "Class Assignment": "high range"
  }
]

Which category fits this record: `CNC(=O)c1ccccc1Nc1nc(Nc2ccc(N3CCOCC3)cc2OC)ncc1Cl`
mid range

Entry to check: `O=C(O)c1ccc2c(c1)nc(Nc1cccc(Cl)c1)c1ccncc12`
mid range

Okay, and `Cc1cc(Nc2cc(CN3CCOCC3)c3nc(C)c(Cc4ccc(Cl)cc4F)n3n2)n[nH]1` ?
high range

Another compound: `C[C@@H](N)c1ccc(C(=O)Nc2ccnc3[nH]ccc23)cc1`
low range

Now consider `CON(C)C(=O)N1N=C(c2cc(F)ccc2F)S[C@@]1(CCCN)c1ccccc1` .
high range
